- MEASURED_ON: Fuc(a1-2)Gal(b1-3)GalNAc(b1-3)Gal
- METHOD_DESCRIPTION: glycan array binding signal (z-score within array); higher = stronger binding
- ASSAY_SETUP: glycan notation: IUPAC condensed, linker removed
This is one part of a sample in which the strongest signals are shown more often than they occur.
QUANTITY_NAME: glycan array binding signal (z-score)
Form field (numeric): enter value without unit.

# BINDER, QUANTITY_NAME, RECORDED_MEASUREMENT
records = [
    ("PEB3 Cj0289c (Campylobacter jejuni), Q9PIK7 (protein) MDVNLYGPGGPHTALKDIANKYSEKTGVKVNVNFGPQATWFEKAKKDADILFGASDQSALAIASDFGKDFNVSKIKPLYFREAIILTQKGNPLKIKGLKDLANKKVRIVVPEGAGKSNTSGTGVWEDMIGRTQDIKTIQNFRNNIVAFVPNSGSARKLFAQDQADAWITWIDWSKSNPDIGTAVAIEKDLVVYRTFNVIAKEGASKETQDFIAYLSSKEAKEIFKKYGWRE", "glycan array binding signal (z-score)", 1.6),
]

Please find the next binder below.
## Input # get_value(readout='glycan array binding signal (z-score)', item= PNGase F (Flavobacterium meningosepticum) (protein) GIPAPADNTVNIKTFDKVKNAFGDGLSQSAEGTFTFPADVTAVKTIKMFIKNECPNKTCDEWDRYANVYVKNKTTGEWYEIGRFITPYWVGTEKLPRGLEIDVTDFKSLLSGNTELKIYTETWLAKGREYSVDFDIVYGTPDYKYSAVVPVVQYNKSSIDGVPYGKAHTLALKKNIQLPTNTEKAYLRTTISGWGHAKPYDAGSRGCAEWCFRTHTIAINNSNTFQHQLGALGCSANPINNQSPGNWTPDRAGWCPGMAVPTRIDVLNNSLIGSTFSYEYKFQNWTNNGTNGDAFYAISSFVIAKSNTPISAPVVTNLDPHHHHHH )
## Output 1.61
